TEST_METHOD_NOTES: qHTS assay to identify small molecule agonists of the sonic hedgehog signaling (Shh) pathway (AID 1259368);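 note: NIH/3T3-derived 3T3Gli1-Luc cells carrying a stable Gli1-driven firefly luciferase reporter; nearly all actives have a fitted effect of over 15% in size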
CONDITION_LABEL: NIH/3T3 Gli1-Luc reporter, luciferase, 24 h; series mostly up to 92.4 µM
Description: National Center for Advancing Translational Sciences [NCATS] NIH Chemical Genomics Center [NCGC] U.S. Environmental Protection Agency [EPA] National Institutes of Environmental Health Sciences [NIEHS] National Toxicology Program [NTP] The sonic hedgehog (Shh) pathway is essential for normal embryonic development. Dysregulation of the Shh pathway can cause severe developmental defects in organs. Therefore chemicals that interfere with the pathway are potential developmental toxicants. […]
Active and inactive are the calls of the source. Calls come from the whole dose curve.
MEASURE: outcome

[[record]]
compound = "Cc1cc(Cl)ccc1O"
result = "inactive"

[[record]]
compound = "CC(=O)C=C(C)C"
result = "inactive"

[[record]]
compound = "CCCCOC(=O)c1ccccc1C(=O)OCCCC"
result = "inactive"

[[record]]
compound = "Cc1ccc([N+](=O)[O-])cc1C"
result = "inactive"

[[record]]
compound = "COC(=O)NC(=S)Nc1ccccc1NC(=S)NC(=O)OC"
result = "inactive"

[[record]]
compound = "COC(=O)c1ccccc1C(=O)OC"
result = "inactive"

[[record]]
compound = "c1ccc2c(c1)oc1ccccc12"
result = "inactive"

[[record]]
compound = "CN(N=O)c1ccccc1"
result = "inactive"

[[record]]
compound = "CCCCCCCCCl"
result = "inactive"

[[record]]
compound = "[N-]=[N+]=[N-]"
result = "inactive"

[[record]]
compound = "CCC[N+](=O)[O-]"
result = "inactive"

[[record]]
compound = "c1ccc2c(c1)Oc1ccccc1O2"
result = "inactive"

[[record]]
compound = "O=C1CCCN1"
result = "inactive"

[[record]]
compound = "Clc1ccc(Cl)cc1"
result = "inactive"

[[record]]
compound = "C=CCO"
result = "inactive"

[[record]]
compound = "CCCCN(CCCC)SN(C)C(=O)Oc1cccc2c1OC(C)(C)C2"
result = "inactive"

[[record]]
compound = "CC(C)NC(=O)N1CC(=O)N(c2cc(Cl)cc(Cl)c2)C1=O"
result = "inactive"

[[record]]
compound = "CCN(CC)CCO"
result = "inactive"

[[record]]
compound = "O=c1[nH]c(=O)[nH]c(=O)[nH]1"
result = "inactive"

[[record]]
compound = "C1CN2CCN1CC2"
result = "inactive"

[[record]]
compound = "COC(=O)NS(=O)(=O)c1ccc(N)cc1"
result = "inactive"

[[record]]
compound = "ClCCBr"
result = "inactive"

[[record]]
compound = "CC(C)(C)OOC(=O)c1ccccc1"
result = "inactive"

[[record]]
compound = "O=c1[nH]c2ccccc2c(=O)o1"
result = "inactive"

[[record]]
compound = "CCOP(OCC)OCC"
result = "inactive"

[[record]]
compound = "COCCl"
result = "inactive"

[[record]]
compound = "COc1ccc2c3c1O[C@H]1[C@@H](O)C=C[C@H]4[C@@H](C2)N(C)CC[C@@]341"
result = "inactive"

[[record]]
compound = "CC(C)N1C(=O)c2ccccc2NS1(=O)=O"
result = "inactive"

[[record]]
compound = "Clc1ccccc1Cl"
result = "inactive"

[[record]]
compound = "OCCN(CCO)CCO"
result = "inactive"

[[record]]
compound = "O=c1n(Cl)c(=O)n(Cl)c(=O)n1Cl"
result = "inactive"

[[record]]
compound = "BrCCBr"
result = "inactive"

[[record]]
compound = "CCCCCCCCCCCC#N"
result = "inactive"

[[record]]
compound = "CC(C)(C)C(O)(CCc1ccc(Cl)cc1)Cn1cncn1 (centres undefined)"
result = "inactive"

